Test system: HT-1080
test_summary: Anti-ferroptotic activity against Erastin-induced ferroptosis in human HT-1080 cells assessed as cell activity measured after 24 hrs by Cell Titer-Glo luminescent assay
Type: functional, cell-based
conditions_used: HT-1080, 24 h
measured_parameter: EC50 (nM)
Dear colleague, please return just the value in nM, with no unit written.

Record excerpt, results attached:
1) CC(C)C[C@@H](/C=C/C(C)(C)C(=O)NC1CC(C)(C)NC(C)(C)C1)NC(=O)OC(C)(C)C    240
2) CC1(C)CC(NC(=O)C(/C=C/[C@H](NC(=O)OC(C)(C)C)c2ccc(F)cc2)(Cc2ccc(F)cc2)Cc2ccc(F)cc2)CC(C)(C)N1    340
3) CC(C)C[C@H](/C=C/C(Cc1ccc(F)cc1)(Cc1ccc(F)cc1)C(=O)NC1CC(C)(C)NC(C)(C)C1)NC(=O)OC(C)(C)C    180
4) CC(C)C[C@@H](/C=C/C(Cc1ccccc1)(Cc1ccccc1)C(=O)NC1CC(C)(C)NC(C)(C)C1)NC(=O)OC(C)(C)C    130

stdin: Give measured EC50 for CCOC(=O)c1ccc(NC2CCCCC2)c(N)c1 (HT-1080).
stdout: 70

stdin: Give measured EC50 for CC(C)C[C@@H](/C=C/CC(=O)NC1CC(C)(C)NC(C)(C)C1)NC(=O)OC(C)(C)C (HT-1080).
stdout: 3580

---

Quick reference for logP among some compounds
test_summary: Lipophilicity, log P of the compound
Type: physicochemical
conditions_used: octanol/water

stdin: Specify logP for CC(C)C[C@H](/C=C/C(Cc1ccc(F)cc1)(Cc1ccc(F)cc1)C(=O)NC1CC(C)(C)NC(C)(C)C1)NC(=O)OC(C)(C)C and stop.
stdout: 7.6

stdin: Specify logP for CC(C)C[C@H](/C=C/C(C)(C)C(=O)NC1CC(C)(C)NC(C)(C)C1)NC(=O)OC(C)(C)C and stop.
stdout: 4

stdin: Specify logP for CC(C)C[C@@H](/C=C/C(Cc1ccccc1)(Cc1ccccc1)C(=O)NC1CC(C)(C)NC(C)(C)C1)NC(=O)OC(C)(C)C and stop.
stdout: 7.2

stdin: Specify logP for CC1(C)CC(NC(=O)C(C)(C)/C=C/[C@H](NC(=O)OC(C)(C)C)c2ccccc2)CC(C)(C)N1 and stop.
stdout: 4.2

stdin: Specify logP for CC1(C)CC(NC(=O)C(/C=C/[C@@H](NC(=O)OC(C)(C)C)c2ccc(F)cc2)(Cc2ccc(F)cn2)Cc2ccc(F)cn2)CC(C)(C)N1 and stop.
stdout: 5.8

stdin: Specify logP for CC1(C)CC(NC(=O)C(/C=C/[C@@H](NC(=O)OC(C)(C)C)c2ccc(F)cc2)(Cc2ccc(F)cc2)Cc2ccc(F)cc2)CC(C)(C)N1 and stop.
stdout: 7.9

stdin: Specify logP for CC(C)C[C@@H](/C=C/C1(C(=O)NC2CC(C)(C)NC(C)(C)C2)CCOCC1)NC(=O)OC(C)(C)C and stop.
stdout: 3.1

stdin: Specify logP for CCOC(=O)c1ccc(NC2CCCCC2)c(N)c1 and stop.
stdout: 2.8

stdin: Specify logP for CC1(C)CC(NC(=O)C(/C=C/[C@@H](NC(=O)OC(C)(C)C)c2ccoc2)(Cc2ccc(F)cc2)Cc2ccc(F)cc2)CC(C)(C)N1 and stop.
stdout: 6

stdin: Specify logP for CC(C)C[C@@H](/C=C/C(C)(C)C(=O)NC1CC(C)(C)NC(C)(C)C1)NC(=O)OC(C)(C)C and stop.
stdout: 4
